- Tested on: HCT-15 colon
- protocolDescription: NCI tumour cell line growth inhibition, 48 h
attributeMeasured: TGI

Below: 2 molecules and their reported TGI.
1. CC(CC[C@@H](C)C1CCC2[C@@H]3CC(O)C4CC(O)[C@@H](O)C[C@]4(C)C3CC[C@@]21C)C(C)(C)C (stereo partly specified)
> 100 µM
2. CCN1CCN(c2cc(C)nc(N(CCNc3ccnc4cc(Cl)ccc34)Cc3ccc4c(c3)OCO4)n2)CC1
2.69 µM

Proceed to the following item.
Give me measured TGI, please, for this molecule: CCOC(=O)C1(C)CCc2sc(N)c(C#N)c21 (stereo unspecified)
> 100 µM

----------
- Tested on: UACC-257 melanoma
- protocolDescription: NCI tumour cell line growth inhibition, 48 h
# TGI listing for each entry below

1) Cc1cc(C)c(S(=O)(=O)N2CCN(S(=O)(=O)c3c(C)cc(C)cc3C)OCCCCCO2)c(C)c1
> 100 µM
2) CNC(=S)Nc1sc2c(c1C#N)CCCC2
> 75 µM
3) Fc1cnc(NC2CC2)nc1-c1cnc2ccc(N3CCOCC3)cn12
11.2 µM
4) CC(C)(CN1CCCCC1)C(/C=C/c1ccc(Cl)c(Cl)c1)=N\NC(=O)N/N=C(/C=C/c1ccc(Cl)c(Cl)c1)C(C)(C)CN1CCCCC1
3.08 µM

// fetch TGI for `CC(C)(C)C(=O)N(C(=S)OCc1ccccn1)c1ccccc1` ; system: UACC-257 melanoma
> 100 µM

// fetch TGI for O=C1NC2C(=O)N(Cc3ccccc3)C(=O)C2N1 (stereo not drawn) ; system: UACC-257 melanoma
> 100 µM

// fetch TGI for `COc1cc(OC)cc(-n2c(N)c(C#N)c3ccc([N+](=O)[O-])cc3c2=O)c1` ; system: UACC-257 melanoma
> 100 µM

// fetch TGI for `CC(=O)NCCc1c(-c2[nH]c3ccccc3c2CCNC(C)=O)[nH]c2ccccc12` ; system: UACC-257 melanoma
> 100 µM

// fetch TGI for `O=C(N/N=C/c1ccccc1O)c1ccccc1O` ; system: UACC-257 melanoma
> 100 µM

// fetch TGI for `ClCc1ccc(-c2ccc(Cn3cnc4nc(Cl)nc(Cl)c43)cc2)cc1` ; system: UACC-257 melanoma
9.88 µM

----------
- Tested on: CCRF-CEM leukemia
- protocolDescription: NCI tumour cell line growth inhibition, 48 h; in the data active = GI50 below about 0.43 µM; inactive = the rest
Mark one answer only. Choices: TRUE = active, FALSE = inactive

Example entries begin here.
1. Nc1nc2c(c3ncccc13)C(c1cccc(Br)c1)Cc1ncccc1-2 (configuration not stated)
FALSE
2. CCCCN1CCN(c2ccc3nc(-c4ccc5nc(-c6ccc(OC)c(OC)c6)[nH]c5c4)[nH]c3c2)CC1
FALSE
3. O=C1C=CC(=O)N1C1CCCCCCCCCCC1
FALSE
4. CCc1ccc(CNCC(O)c2ccccc2)cc1 (configuration not stated)
FALSE
5. FC(F)(F)c1nnn[n-]1.[Au+].c1ccc([PH+](c2ccccc2)c2ccccc2)cc1
FALSE

Field: outcome | Entry: `[Cl-].[Cl-].[Cl-].[O-]c1cccc2cccnc12.[O-]c1cccc2cccnc12.[O]=[Mo]`
TRUE

Field: outcome | Entry: `CCCS(=O)(=O)Nc1ccc(F)c(C(=O)c2c[nH]c3ncc(Cl)cc23)c1F`
FALSE

Field: outcome | Entry: C[C@@H]1C[N+]2([O-])[C@H]3C4=CCC[C@@H]4CC[C@H]3[C@@]3(C)OC(=O)CC[C@]34CC[C@H]1[C@@H]42 (some centres not stated)
FALSE

Field: outcome | Entry: `C(#Cc1cnccn1)/C=C\C#Cc1cnccn1`
FALSE

Field: outcome | Entry: COc1cccc2c1C(=O)c1c(O)c3c(c(O)c1C2=O)C[C@@](O)(C(C)O)C[C@@H]3OC1CC(N)C(O)C(C)O1 (some centres not stated)
TRUE

Field: outcome | Entry: `ClCc1ccc(-c2ccc(Cn3cnc4nc(Cl)nc(Cl)c43)cc2)cc1`
FALSE

Field: outcome | Entry: `CCOc1nc(-c2ccccc2)cc2c(O)c(C(=O)N/N=C/c3ccc(O)cc3O)[nH]c(=O)c12`
TRUE

----------
- Tested on: XF 498 CNS
- protocolDescription: NCI tumour cell line growth inhibition, 48 h
attributeMeasured: TGI

1) N#CC(/C(CCCC(=O)Nc1cccc([N+](=O)[O-])c1)=N/NC(=O)c1cc2ccccc2cc1O)c1ccccc1 (stereo not given)
63 µM
2) O=C1C2C(C(=O)N1c1ccccc1)C1(Br)c3ccccc3C2(Br)C2C(=O)N(c3ccccc3)C(=O)C21 (stereo not given)
> 100 µM
3) Cc1cc(N(CCC#N)CCC#N)ccc1/C=C\C(=O)Nc1ccccc1
> 100 µM
4) COc1ccc(/C=C2\C(=O)N(C(=O)c3ccc(NC(C)=O)cc3)N=C2C)cc1
> 100 µM
5) CCCc1onc(CCC(=O)N(Cc2ccccc2)Cc2ccccc2)c1CC
> 100 µM
6) CN(C)N=Nc1ccccc1
> 100 µM
7) [C-]#[N+][C@@H]1C2[C@H](CC[C@@]1(C)O)C(=C)CC[C@@H]2[C@@]1(C)CC[C@H](Cl)C(C)(C)O1 (stereo not given in full)
26.4 µM
8) COC(=O)c1cc(OC(C)=O)c2c(OC)ccc(OC)c2c1
> 100 µM
9) O=C(CC1=Nc2nnc(CCCCCCCc3nnc4n3C(=O)C(CC(=O)c3ccccc3)=N4)n2C1=O)c1ccccc1
> 100 µM

Give me measured TGI, please, for this molecule: `O=NN(CCCl)C(=O)NCCCl`
135 µM

----------
- System: MCF7 breast
- protocolDescription: NCI tumour cell line growth inhibition, 48 h
attributeMeasured: TGI (µM)
Please reply with the bare figure in µM and do not write the unit itself.

Below: 2 compounds and their reported TGI.
1. CSC1=NN(c2ccccc2)C(=O)C1=C(SC)SC
49.6
2. CC1=NCCc2cc3[nH]c4ccccc4c3cc21
69.7

Give me measured TGI, please, for this compound: Clc1ccc(CSc2ncnc3c2ncn3C2CCCCO2)cc1 (stereo unspecified)
83.7

----------
- Tested on: OVCAR-8 ovarian
- protocolDescription: NCI tumour cell line growth inhibition, 48 h
attributeMeasured: TGI

Below: 2 molecules and their reported TGI.
1) C#C[C@]1(O)CC[C@H]2[C@@H]3CCC4=CC(=NCCOC(=O)c5cccc6cc7ccccc7nc56)CC[C@@H]4[C@H]3CC[C@@]21C
21.9 µM
2) O=c1[nH]c(=O)n(C2CC(O)C(CO)O2)c2nc3cc4ccccc4cc3nc12 (configuration not stated)
> 100 µM

Proceed to the following item.
Give me measured TGI, please, for this molecule: `Cc1ncc([N+](=O)[O-])n1CCNC(=O)CCCn1ccnc1[N+](=O)[O-]`
> 100 µM

----------
- Test system: RPMI-8226 leukemia
- protocolDescription: NCI tumour cell line growth inhibition, 48 h; in the data active = GI50 below about 0.43 µM; inactive = the rest
Mark one answer only. Choices: true = active, false = inactive

Example entries begin here.
1) CCOC(=O)N1C/C(=C/c2ccc(F)cc2)C(=O)/C(=C/c2ccc(F)cc2)C1
true
2) O=C(N/N=C/c1ccccc1O)c1ccccc1O
false
3) O=c1c2ccc3cccc4c(=O)c5ccc6cccc1c6c5-c2c34
false

Next molecule, please.
Field: outcome | Entry: `O=c1c2cc(F)ccc2sc2c(N3CCNCC3)nc3ccccc3c12`
false

----------
- System: SF-295 CNS
- protocolDescription: NCI tumour cell line growth inhibition, 48 h
attributeMeasured: TGI

1. O=C(/C=C/c1ccc(Cl)cc1)/C=C/c1cc2ccccc2[nH]c1=O
13.2 µM
2. FC(F)(F)c1nnn[n-]1.[Au+].c1ccc([PH+](c2ccccc2)c2ccccc2)cc1
41.3 µM
3. CN(C)CCCOc1ccc(OCCCN(C)C)c2c1C(=O)c1ccccc1C2=O
10.6 µM
4. O=C(O)/C(=C/C(=O)c1ccc(Cl)cc1)NNc1ccc([N+](=O)[O-])cc1[N+](=O)[O-]
> 100 µM
5. COc1ccc(/C=N/c2nc3cc4sc(/N=C/c5ccc(OC)cc5)nc4cc3s2)cc1
> 100 µM

// fetch TGI for CC(=O)OC1CC2(C)C(OC(C)=O)CC1C2(C)C (centres undefined) ; system: SF-295 CNS
> 100 µM

// fetch TGI for O=C1C2C=CC(n3[nH]c(=O)n(Cc4ccccc4)c3=O)CC2C(=O)N1c1cccc(Cl)c1 (centres undefined) ; system: SF-295 CNS
> 100 µM

// fetch TGI for `COc1ccc(/C=C2\C(=O)N(C(=O)c3ccc(NC(C)=O)cc3)N=C2C)cc1` ; system: SF-295 CNS
> 100 µM

// fetch TGI for `CC(C)=CCc1c(O)c(CC=C(C)C)c2oc(-c3ccc(O)cc3O)c(CC=C(C)C)c(=O)c2c1O` ; system: SF-295 CNS
20.3 µM

// fetch TGI for `O=C(NC(=S)Nc1ccccc1)c1ccc([N+](=O)[O-])cc1` ; system: SF-295 CNS
> 100 µM

// fetch TGI for `Cc1cc2[nH]c(Cl)c(/C=C3\C(=O)Nc4ccccc43)c2cc1O` ; system: SF-295 CNS
11.3 µM

// fetch TGI for `C=C1OC(=O)[C@]2([C@@H](/C=C/C)C=CC(=O)[C@H]2O)[C@@H]1O` ; system: SF-295 CNS
> 100 µM

// fetch TGI for `O=c1c2cc(F)ccc2sc2c(N3CCNCC3)nc3ccccc3c12` ; system: SF-295 CNS
3.17 µM

// fetch TGI for CC(C)(C)OC(=O)C1C(=O)NC(=O)CC1CC(OCc1ccccc1)C(COCc1ccccc1)OCc1ccccc1 (centres undefined) ; system: SF-295 CNS
> 100 µM

// fetch TGI for O=C(O)CNC(=O)C(CS)Cc1ccccc1 (centres undefined) ; system: SF-295 CNS
> 25 µM

// fetch TGI for CN1C(=O)CC2CCCN2C1=O (centres undefined) ; system: SF-295 CNS
> 100 µM

// fetch TGI for `CN(C)Cc1cc(N=Nc2ccccc2)ccc1O` ; system: SF-295 CNS
> 100 µM

// fetch TGI for [C-]#[N+][C@@H]1C2[C@H](CC[C@@]1(C)O)C(=C)CC[C@@H]2[C@@]1(C)CC[C@H](Cl)C(C)(C)O1 (some centres undefined) ; system: SF-295 CNS
28.3 µM

// fetch TGI for `N#C/C(=C\c1ccccc1)c1nc(-c2cc3ccccc3oc2=O)cs1` ; system: SF-295 CNS
> 100 µM

// fetch TGI for `O=c1c2cc([N+](=O)[O-])ccc2[nH]n1Cc1ccccn1` ; system: SF-295 CNS
> 100 µM

// fetch TGI for COC1CC(OC2C(C)OC(OC3C(C)OC(OC4C(C)OC(O[C@H]5CC[C@@]6(C)C(=CC[C@]7(O)[C@@H]6C[C@@H](OC(=O)/C=C(\C)C(C)C)[C@@]6(C)[C@]7(O)CC[C@@]6(O)C(C)=O)C5)CC4OC)CC3OC)CC2OC)OC(C)C1O (some centres undefined) ; system: SF-295 CNS
> 12.5 µM

// fetch TGI for `O=C(Oc1ccc(S(=O)(=O)F)cc1F)c1ccccc1Cl` ; system: SF-295 CNS
89.4 µM

// fetch TGI for `Cc1ccc([N+](=O)[O-])cc1S(=O)(=O)Nc1ccc(C(=O)/C=C/c2cccs2)cc1` ; system: SF-295 CNS
> 100 µM

// fetch TGI for `COc1cc2c(cc1O)NC(=S)[C@@H]1CCCN1C2=O` ; system: SF-295 CNS
> 100 µM
